Hello, the source for this data is patent US9718804B2, in case you need it.

Exercise: state measured pIC50 for each of the compounds provided.
Biological target: GSK3α (Homo sapiens, UniProt P49840)
Sequence (P49840 whole entry, species assumed): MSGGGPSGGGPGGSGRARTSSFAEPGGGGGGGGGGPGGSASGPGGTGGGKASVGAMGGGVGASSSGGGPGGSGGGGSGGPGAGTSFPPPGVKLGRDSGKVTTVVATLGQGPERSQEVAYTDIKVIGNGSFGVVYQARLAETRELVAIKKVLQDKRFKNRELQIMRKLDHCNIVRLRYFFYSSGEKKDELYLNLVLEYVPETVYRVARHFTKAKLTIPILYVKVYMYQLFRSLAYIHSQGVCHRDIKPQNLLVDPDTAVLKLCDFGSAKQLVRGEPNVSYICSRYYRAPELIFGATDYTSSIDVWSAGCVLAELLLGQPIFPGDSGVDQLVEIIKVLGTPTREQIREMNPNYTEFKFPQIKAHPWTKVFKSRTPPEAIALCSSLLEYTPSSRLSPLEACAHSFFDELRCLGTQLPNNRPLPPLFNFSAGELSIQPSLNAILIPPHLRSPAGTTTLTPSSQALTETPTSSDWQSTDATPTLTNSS
Assay: GSK3α kinase assay (Caliper LabChip, fluoresceinated peptide substrate)
Format: biochemical
Description: The kinase assay was performed in V-bottom 384-well plates. […] The reaction was incubated at room temperature for 20 hours and terminated by adding 45 μl of 35 mM EDTA to each sample. The reaction mixture was analyzed on the Caliper LabChip3000 (Caliper, Hopkinton, Mass.) by electrophoretic separation of the unphosphorylated substrate and phosphorylated product. […] Compounds were dissolved at 10 mM in dimethylsulfoxide (DMSO) and evaluated at eleven concentrations. […]
Entry type: numeric. Quantity: pIC50, the -log10 of concentration in molar units.

Req: Field: pIC50 (GSK3α (Homo sapiens, UniProt P49840)). Entry: `Cc1ccc(Nc2cc(C(=O)Nc3cncc(-c4ccccc4F)c3)ccn2)nc1C`
Resp: 8.22

Req: Field: pIC50 (GSK3α (Homo sapiens, UniProt P49840)). Entry: `O=C(Nc1cnccc1-c1ccccc1F)c1ccnc(Nc2ccc(C(F)(F)F)cn2)c1`
Resp: 9.49

Req: Field: pIC50 (GSK3α (Homo sapiens, UniProt P49840)). Entry: `C[C@H]1CO[C@](c2cc(Cl)ncc2NC(=O)c2ccnc(Nc3ccc(C(F)(F)F)cn3)c2)(C2CC2)O1`
Resp: 9.25

Req: Field: pIC50 (GSK3α (Homo sapiens, UniProt P49840)). Entry: `CC(C)(C)C(=O)Nc1cccc(Nc2cc(C(=O)Nc3cncc(-c4ccccc4F)c3)ccn2)n1`
Resp: 8.66

Req: Field: pIC50 (GSK3α (Homo sapiens, UniProt P49840)). Entry: `Cc1ccnc(Nc2cc(C(=O)Nc3cnccc3-c3ccccc3)ccn2)c1`
Resp: 8.89

Req: Field: pIC50 (GSK3α (Homo sapiens, UniProt P49840)). Entry: `N#Cc1cccc(Nc2cc(C(=O)Nc3cncc(-c4ccccc4F)c3)ccn2)n1`
Resp: 9.06

Req: Field: pIC50 (GSK3α (Homo sapiens, UniProt P49840)). Entry: `O=C(Nc1cnc(F)cc1OCC(F)F)c1ccnc(Nc2ccc(F)cn2)c1`
Resp: 8.82

Req: Field: pIC50 (GSK3α (Homo sapiens, UniProt P49840)). Entry: `C[C@H]1COCCN1c1ccncc1NC(=O)c1ccnc(Nc2ccc(C(F)(F)F)cn2)c1`
Resp: 10.05
